tested on: [^3H]cytosine-labelled DNA; experiment: Release of [3H]cytosine from ds or ss labelled DNA; assay type: biochemical; settings: single-stranded cytosine DNA, 6.5 μM, 10 min; 0 = below detection limit
measured-endpoint: C-ss, pmol excised per min per mg protein

Ask: In one line, give reported C-ss, pmol excised per min per mg protein of the entry Ser169Ala: human UDG (UNGΔ84) mutant with Ser169 replaced by Ala (protein) MGVFCLGPWGLGRKLRTPGKGPLQLLSRLCGDHLQAIPAKKAPAGQEEPGTPPSSPLSAEQLDRIQRNKAAALLRLAARNVPVGFGESWKKHLSGEFGKPYFIKLMGFVAEERKHYTVYPPPHQVFTWTQMCDIKDVKVVILGQDPYHGPNQAHGLCFSVQRPVPPPPALENIYKELSTDIEDFVHPGHGDLSGWAKQGVLLLNAVLTVRAHQANSHKERGWEQFTDAVVSWLNQNSNGLVFLLWGSYAQKKGSAIDRKRHHVLQTAHPSPLSVYRGFFGCRHFSKTNELLQKSGKKPIDWKEL .
Reply: 0 pmol excised per min per mg protein
